TARGET SYSTEM: T1, IL-13Rα2 receptor (human, UniProt Q14627 27-380)
T1 sequence (looked up): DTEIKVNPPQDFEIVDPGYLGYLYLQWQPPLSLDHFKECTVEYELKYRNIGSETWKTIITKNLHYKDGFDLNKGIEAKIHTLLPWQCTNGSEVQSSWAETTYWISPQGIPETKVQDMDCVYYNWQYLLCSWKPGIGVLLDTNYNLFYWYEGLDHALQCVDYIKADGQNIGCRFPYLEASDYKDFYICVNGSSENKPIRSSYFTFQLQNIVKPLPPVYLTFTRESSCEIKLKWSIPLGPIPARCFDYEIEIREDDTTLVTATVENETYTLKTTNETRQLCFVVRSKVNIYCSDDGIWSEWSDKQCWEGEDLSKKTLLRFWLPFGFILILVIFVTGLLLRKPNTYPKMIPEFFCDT
ASSAY COMMENT: cell-based or functional assay
Assignment: determine reported IC50 (ng Ab/mL), viability of PC3MM2 cells for the given binders.
Could you give me the number in ng Ab/mL? Just the number is fine.

Qu. Determine its reported IC50 (ng Ab/mL), viability of PC3MM2 cells: IL13Ra2-AB08-v1010-hG1-(C)_mcValCitPABC-#226 (antibody, V domains shown, drug-linker mcValCitPABC-#226 on cysteine (C), positions not given; drug-linker mcValCitPABC-#226 on cysteine (C), positions not given; DAR 3 per antibody) VH: EVQLVESGGGLVQPGGSLRLSCAASGFTFSRNGMSWVRQAPGKGLEWVATVSSGGSYIYYADSVKGRFTISRDNAKNSLYLQMNSLRAEDTAVYYCARQGTTALATRFFDVWGQGTLVTVSS VL: DIQMTQSPSSLSASVGDRVTITCKASQDVGTAVAWYQQKPGKAPKLLIYSASYRSTGVPSRFSGSGSGTDFTLTISSLQPEDFATYYCQHHYSAPWTFGGGTKVEIKT
Ans. 1.5

Qu. For the binder IL13Ra2-AB08-v1010-hG1-(C)_mcValCitPABC-#54 (antibody, V domains shown, drug-linker mcValCitPABC-#54 on cysteine (C), positions not given; drug-linker mcValCitPABC-#54 on cysteine (C), positions not given; DAR 3.2 per antibody) VH: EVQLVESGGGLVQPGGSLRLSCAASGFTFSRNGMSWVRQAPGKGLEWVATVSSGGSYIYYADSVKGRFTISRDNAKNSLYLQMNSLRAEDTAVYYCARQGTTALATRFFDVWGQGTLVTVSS VL: DIQMTQSPSSLSASVGDRVTITCKASQDVGTAVAWYQQKPGKAPKLLIYSASYRSTGVPSRFSGSGSGTDFTLTISSLQPEDFATYYCQHHYSAPWTFGGGTKVEIKT , give its measured IC50 (ng Ab/mL), viability of PC3MM2 cells value.
Ans. 2.5

Qu. Return value of IC50 (ng Ab/mL), viability of PC3MM2 cells for input IL13Ra2-AB08-v1010-hG1-(C)_mc-#115 (antibody, V domains shown, drug-linker mc-#115 on cysteine (C), positions not given; drug-linker mc-#115 on cysteine (C), positions not given; DAR 4.3 per antibody) VH: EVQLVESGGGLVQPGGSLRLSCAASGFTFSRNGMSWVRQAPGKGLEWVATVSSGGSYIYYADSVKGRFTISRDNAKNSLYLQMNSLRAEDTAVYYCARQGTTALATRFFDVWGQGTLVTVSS VL: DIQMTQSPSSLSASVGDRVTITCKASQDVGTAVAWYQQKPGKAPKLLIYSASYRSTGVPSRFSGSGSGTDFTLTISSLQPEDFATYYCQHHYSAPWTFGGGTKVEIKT , no commentary.
Ans. 1.2

The origin of these recorded values is patent US20130129753A1.
